# Study System: human GRP receptor (human, UniProt P30550 1-384)
# Sequence (P30550 whole entry): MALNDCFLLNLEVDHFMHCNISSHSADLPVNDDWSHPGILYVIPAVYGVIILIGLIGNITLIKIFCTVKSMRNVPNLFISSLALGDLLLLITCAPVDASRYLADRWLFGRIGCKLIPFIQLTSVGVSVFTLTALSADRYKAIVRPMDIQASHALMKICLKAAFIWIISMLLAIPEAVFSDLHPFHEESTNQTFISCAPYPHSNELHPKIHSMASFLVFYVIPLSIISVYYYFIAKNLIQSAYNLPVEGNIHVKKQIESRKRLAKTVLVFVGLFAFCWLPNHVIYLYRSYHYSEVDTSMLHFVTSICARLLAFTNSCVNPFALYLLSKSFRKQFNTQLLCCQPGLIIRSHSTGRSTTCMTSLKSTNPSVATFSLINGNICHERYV
# Test Summary: cell-based or functional assay
Starred links: 1 amine or outer side, 2 acyl side, 3 side chain; linkers in the order of their positions; H or OH if unused. Non-standard residues stand in square brackets, D forms with d. *: point of attachment. C20 diacid = O=C(O)CCCCCCCCCCCCCCCCCCC(=O)*; d(γGlu) = O=C(O)[C@@H](CCC(=O)[*:2])N[*:1]; C18 diacid = O=C(O)CCCCCCCCCCCCCCCCC(=O)*; γGlu = O=C(O)[C@H](CCC(=O)[*:2])N[*:1]; 2CE‑PEG‑TMEA = not defined here; 3Pal = N[C@@H](Cc1cccnc1)C(=O)O; Nle = CCCC[C@H](N)C(=O)O; Dap = NC[C@H](N)C(=O)O; AEEA = NCCOCCOCC(=O)O; Aib = CC(C)(N)C(=O)O; βAla = NCCC(=O)O
Value Kind: hIP1 GRPR EC50 (nM)

>>> endpoint_value("{C20 diacid}-[γGlu][γGlu][AEEA][AEEA][dF]N[3Pal]WAV[βAla]HL[Nle]-NH2 (SMILES CCCC[C@H](NC(=O)[C@H](CC(C)C)NC(=O)[C@H](Cc1c[nH]cn1)NC(=O)CCNC(=O)[C@@H](NC(=O)[C@H](C)NC(=O)[C@H](Cc1c[nH]c2ccccc12)NC(=O)[C@H](Cc1cccnc1)NC(=O)[C@H](CC(N)=O)NC(=O)[C@@H](Cc1ccccc1)NC(=O)COCCOCCNC(=O)COCCOCCNC(=O)CC[C@H](NC(=O)CC[C@H](NC(=O)CCCCCCCCCCCCCCCCCCC(=O)O)C(=O)O)C(=O)O)C(C)C)C(N)=O) [Peptide 245]")
11.9
>>> endpoint_value("GNHWAVXHLX (Gly-Asn-His-Trp-Ala-Val-D-Ala-His-Leu-Nle-NH2) [Peptide 6]")
26.8
>>> endpoint_value("{C18 diacid}-[d(γGlu)][AEEA][AEEA]GNHWAV[Aib]HL[Nle]-NH2 (SMILES CCCC[C@H](NC(=O)[C@H](CC(C)C)NC(=O)[C@H](Cc1c[nH]cn1)NC(=O)C(C)(C)NC(=O)[C@@H](NC(=O)[C@H](C)NC(=O)[C@H](Cc1c[nH]c2ccccc12)NC(=O)[C@H](Cc1c[nH]cn1)NC(=O)[C@H](CC(N)=O)NC(=O)CNC(=O)COCCOCCNC(=O)COCCOCCNC(=O)CC[C@@H](NC(=O)CCCCCCCCCCCCCCCCC(=O)O)C(=O)O)C(C)C)C(N)=O) [Peptide 4]")
1420
>>> endpoint_value("{C20 diacid}-[γGlu][AEEA][AEEA]G[Dap](2CE‑PEG‑TMEA)HWAV[βAla]HL[Nle]-NH2 (reading uncertain) [Peptide 262]")
4

These measurements were taken from patent US20260176319A1.
